Hello, the source for this data is patent US20220251215A1, in case you need it.

Measurement Target: T1, monomeric HLA-A2:NY-ESO-1(156-165) (V at position 165) peptide complex, 2906
T1 construct: also called soluble HLA-A2:NY-ESO-1 peptide complex
Measurement Protocol: SPR, 37 C, antibody captured, monomeric complex injected
Recorded pKd by entry
Hey, just a heads up that pKd is the negative log base 10 of the concentration in molar.

See these solved cases before continuing.
- Binder: "mAb28128P (antibody, human IgG4 S228P, kappa, V domains shown) VH: EVQLVESGGGVVQPGGSLRLSCAASGFIFDDYAMHWVRQVPGKGLEWISLSSGGGGGTYYADPVKGRFTISRDNSKNSLHLQMNSLRAEDTASYYCAKDMVFGVVTPDFFFAMDVWGQGTTVTVSS VL: DIQMTQSPSSLSASVGDRVTITCRASQSISTYLNWYQQKPGKAPKLLIYGASSLQRGVPSRFSGSGSGTDFTLTISSLQPEDFATYYCQQTYSTPPITFGQGTRLEIKR"
  Measured Metric: "pKd"
  Endpoint Value: 9.53
- Binder: "mAb28042P (antibody, human IgG4 S228P, kappa, V domains shown) VH: QLQLQESDPGLVKPSETLSLTCTVSGDSIRNSNYYWGWIRQPPGKGLEWIGSIYFSGRTYFNPSLKSRVTIPVDMSKNQFSLMLNSVTATDTAVYYCARHGGITAAGGFFDYWGQGTLVTVSS VL: DIQMTQSPSSLSASVGDRVTITCQASQDISNYLNWYQQKPGKAPNVLIYDASNLETGVPSRFSGSGSGTDFTFTISSLQPEDFATYYCQQNDNLPLTFGGGTKVEIKR"
  Measured Metric: "pKd"
  Endpoint Value: 8.68
- Binder: "mAb28037P2 (antibody, human IgG4 S228P, kappa, V domains shown) VH: QVQLQESGPGLVKPSETLSLTCTVSGDSISVYYWTWIRQPPGKGLEWIGYVHYTGYTNYNPSLKSRVTMSVDTAKKQISLKVRSVTAADTAVYYCARTIPAAAHYYHGTDVWGPGTTVTVSS VL: DIQMTQSPSSLSASVGDRVTITCQANQDIRKYLNWYQQKSGKAPTLLIYEASNLETGAPSTFSGSGSGTEFTFTISSLRPEDIATYYCQQYESLPLTFGGGTKVEIKR"
  Measured Metric: "pKd"
  Endpoint Value: 8.56

We now examine a further binder.
Lab note: mAb28105P (antibody, human IgG4 S228P, kappa, V domains shown) VH: EVQLVESGGGVVQPGGSLRLSCEASGFIFDDYAMHWVRQAPGKGLEWVSLISGDGDIIYYADSVKGRFTISRDNSKNSLYLQMNSLIIEDTALYYCAKDWVFGVVMTHYWYFGLDVWGQGTTVTVSS VL: DIQMTQSPSSLSASEGDRVTITCRASQSISTYLNWYQQKPGKAPKLLIYGASSLQSGVPSRFSGSGSGTDFTLTISSLQPEDFATYYCQQSYSTPPITFGQGTKVEIKR gave pKd of 9.23
